Data credit: patent US10766865B2

Molecular target: PKM2 (Homo sapiens)
Experiment: PKM2 Biochemical Assay
Details: % maximum response in a biochemical assay as compared with Fructose 1,6-bisphosphate
Reported Max. Resp. values for a set of compounds
MEASURE_NAME: Max. Resp. (%)

[
  {
    "COMPOUND": "CCN(CCN(Cc1ccccc1Cl)C(=O)c1cc(C(F)(F)F)n[nH]1)C(C)C",
    "MEASURE_NAME": "Max. Resp.",
    "MEASUREMENT": 53
  },
  {
    "COMPOUND": "Nc1cccc(Cl)c1CN(CCN1CCS(=O)(=O)CC1)C(=O)c1cc(C(F)(F)F)n[nH]1",
    "MEASURE_NAME": "Max. Resp.",
    "MEASUREMENT": 100
  },
  {
    "COMPOUND": "O=C(c1cc(C(F)(F)F)n[nH]1)N(Cc1ccccc1Cl)CC1CCC1",
    "MEASURE_NAME": "Max. Resp.",
    "MEASUREMENT": 100
  },
  {
    "COMPOUND": "Nc1ccc(Cl)c(CN(CCN2CCCCCC2)C(=O)c2cc(C(F)(F)F)n[nH]2)c1",
    "MEASURE_NAME": "Max. Resp.",
    "MEASUREMENT": 100
  },
  {
    "COMPOUND": "Nc1ccc(CN(CCN2CCCCCC2)C(=O)c2cc(C(F)(F)F)n[nH]2)c(Cl)c1",
    "MEASURE_NAME": "Max. Resp.",
    "MEASUREMENT": 75
  },
  {
    "COMPOUND": "O=C(c1cc(C(F)(F)F)n[nH]1)N(CCN1CCCCCC1)Cc1ccc(O)cc1Cl",
    "MEASURE_NAME": "Max. Resp.",
    "MEASUREMENT": 100
  },
  {
    "COMPOUND": "CN1CCN(CCN(Cc2ccccc2F)C(=O)c2cc(C(F)(F)F)n[nH]2)CC1",
    "MEASURE_NAME": "Max. Resp.",
    "MEASUREMENT": 42
  },
  {
    "COMPOUND": "O=C(c1cc(C(F)(F)F)n[nH]1)N(Cc1cccc2c1CCN2)CC1CCC1",
    "MEASURE_NAME": "Max. Resp.",
    "MEASUREMENT": 81
  },
  {
    "COMPOUND": "CC1CCCCN1CCN(Cc1ccccc1Cl)C(=O)c1cc(C(F)(F)F)n[nH]1 (centres unmarked)",
    "MEASURE_NAME": "Max. Resp.",
    "MEASUREMENT": 100
  },
  {
    "COMPOUND": "O=C(c1cc(C(F)(F)F)n[nH]1)N(CCC1CCS(=O)(=O)CC1)Cc1ccccc1Cl",
    "MEASURE_NAME": "Max. Resp.",
    "MEASUREMENT": 102
  },
  {
    "COMPOUND": "O=C(c1cc(C(F)(F)F)n[nH]1)N(CCC1CCS(=O)(=O)C1)Cc1ncccc1Cl (centres unmarked)",
    "MEASURE_NAME": "Max. Resp.",
    "MEASUREMENT": 74
  },
  {
    "COMPOUND": "CCN(CC)CCN(Cc1ccc(F)cc1Cl)C(=O)c1cc(C(F)(F)F)n[nH]1",
    "MEASURE_NAME": "Max. Resp.",
    "MEASUREMENT": 100
  },
  {
    "COMPOUND": "CCN(CC)CCN(Cc1cc(F)ccc1Cl)C(=O)c1cc(C(F)(F)F)n[nH]1",
    "MEASURE_NAME": "Max. Resp.",
    "MEASUREMENT": 100
  },
  {
    "COMPOUND": "O=C(c1cc(C(F)(F)F)n[nH]1)N(CCC1CCOC1)Cc1c(Cl)cccc1Cl (centres unmarked)",
    "MEASURE_NAME": "Max. Resp.",
    "MEASUREMENT": 81
  },
  {
    "COMPOUND": "O=C(c1cc(C(F)(F)F)n[nH]1)N(CCN1CCS(=O)(=O)CC1)Cc1c(Cl)cccc1Cl",
    "MEASURE_NAME": "Max. Resp.",
    "MEASUREMENT": 84
  },
  {
    "COMPOUND": "O=C(c1cc(C(F)(F)F)n[nH]1)N(CCC1CCSCC1)Cc1ccccc1Cl",
    "MEASURE_NAME": "Max. Resp.",
    "MEASUREMENT": 79
  },
  {
    "COMPOUND": "O=C(c1cc(C(F)(F)F)n[nH]1)N(CCO)Cc1ccc(O)cc1F",
    "MEASURE_NAME": "Max. Resp.",
    "MEASUREMENT": 70
  }
]

----------
Biological target: PKM2 (Homo sapiens, UniProt P14618)
Sequence (P14618 whole entry): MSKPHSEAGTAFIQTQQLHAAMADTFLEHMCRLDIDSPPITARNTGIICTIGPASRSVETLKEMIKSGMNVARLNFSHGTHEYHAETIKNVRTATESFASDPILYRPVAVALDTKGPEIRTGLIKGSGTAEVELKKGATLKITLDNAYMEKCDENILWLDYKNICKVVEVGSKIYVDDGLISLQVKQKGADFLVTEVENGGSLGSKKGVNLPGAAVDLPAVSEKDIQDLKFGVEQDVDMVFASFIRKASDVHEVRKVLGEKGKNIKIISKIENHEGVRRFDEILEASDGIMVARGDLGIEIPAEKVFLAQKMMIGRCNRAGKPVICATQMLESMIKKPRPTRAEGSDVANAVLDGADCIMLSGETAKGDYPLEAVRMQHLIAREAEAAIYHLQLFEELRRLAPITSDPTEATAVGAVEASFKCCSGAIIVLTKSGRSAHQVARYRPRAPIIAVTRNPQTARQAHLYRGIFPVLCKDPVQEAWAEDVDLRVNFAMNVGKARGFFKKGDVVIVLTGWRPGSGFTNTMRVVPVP
Test: PKM2 Biochemical Assay
Settings: % maximum response in a biochemical assay as compared with Fructose 1,6-bisphosphate
Property: Max. Resp.; scope: individual compounds

[
  {
    "COMPOUND": "O=C(c1cc(C(F)(F)F)n[nH]1)N(Cc1ccc(O)cc1F)C1CCCC1",
    "Max. Resp. (%)": 100
  },
  {
    "COMPOUND": "O=C(c1cc(Br)n[nH]1)N(Cc1cccc2[nH]cnc12)CC1CCC1",
    "Max. Resp. (%)": 100
  },
  {
    "COMPOUND": "O=C(c1cc(C(F)(F)F)n[nH]1)N(Cc1cccc(Cl)c1O)CC1CCC1",
    "Max. Resp. (%)": 100
  },
  {
    "COMPOUND": "COC1CCCN(CCN(Cc2c(N)cccc2Cl)C(=O)c2cc(C(F)(F)F)n[nH]2)C1 (centres unmarked)",
    "Max. Resp. (%)": 100
  },
  {
    "COMPOUND": "O=C(c1cc(Br)n[nH]1)N(Cc1ccc(O)cc1Cl)CC1CCC1",
    "Max. Resp. (%)": 100
  },
  {
    "COMPOUND": "O=C(c1cc(C(F)(F)F)n[nH]1)N(CCC1CCOC1)Cc1c(F)cccc1F (centres unmarked)",
    "Max. Resp. (%)": 114
  },
  {
    "COMPOUND": "O=C(c1cc(C(F)(F)F)n[nH]1)N(CCN1CCCC1)Cc1ccccc1F",
    "Max. Resp. (%)": 100
  },
  {
    "COMPOUND": "O=C(c1cc(C(F)(F)F)n[nH]1)N(CCN1CCS(=O)(=O)CC1)Cc1ccccc1F",
    "Max. Resp. (%)": 92
  },
  {
    "COMPOUND": "Nc1cccc(Cl)c1CN(CCN1CCCC(F)CC1)C(=O)c1cc(C(F)(F)F)n[nH]1 (centres unmarked)",
    "Max. Resp. (%)": 100
  },
  {
    "COMPOUND": "CCN(CC)CCN(Cc1cccc2[nH]cnc12)C(=O)c1cc(C(F)(F)F)n[nH]1",
    "Max. Resp. (%)": 100
  },
  {
    "COMPOUND": "CCO[C@H]1CC[C@H](N(Cc2ccccc2F)C(=O)c2cc(C(F)(F)F)n[nH]2)CC1",
    "Max. Resp. (%)": 101
  },
  {
    "COMPOUND": "O=C(c1cc(C(F)(F)F)n[nH]1)N(CCN1CCCC1)Cc1cccc2[nH]cc(F)c12",
    "Max. Resp. (%)": 100
  },
  {
    "COMPOUND": "O=C(c1cc(C(F)(F)F)n[nH]1)N(CCN1CCCCC1)Cc1c(F)cccc1Cl",
    "Max. Resp. (%)": 100
  },
  {
    "COMPOUND": "CC1CCCC(C)N1CCN(Cc1ccccc1Cl)C(=O)c1cc(C(F)(F)F)n[nH]1 (centres unmarked)",
    "Max. Resp. (%)": 53
  },
  {
    "COMPOUND": "CO[C@H]1CC[C@H](N(Cc2c(F)cccc2F)C(=O)c2cc(C(F)(F)F)n[nH]2)CC1",
    "Max. Resp. (%)": 122
  },
  {
    "COMPOUND": "O=C(c1cc(Cl)n[nH]1)N(CCC1CCSCC1)Cc1ccccc1F",
    "Max. Resp. (%)": 46
  },
  {
    "COMPOUND": "O=C(c1cc(C(F)(F)F)n[nH]1)N(CCC1CCS(=O)(=O)C1)Cc1c(F)cccc1F (centres unmarked)",
    "Max. Resp. (%)": 102
  }
]

----------
System: Capan2
Assay: Cell line sensitivity (viability, ATPlite)
Assay type: cell-based
Conditions: Homo sapiens, Capan-2; Capan2, Pancreatic; BME media, 72 hours; read-out: Sensitivity to Example 1 (IC50)
Protocol: Viability effect of Example 1 against a subset of lung carcinoma cell lines was determined as follows. Cells were seeded at 1500 cells per well in 384-well plates in BME media, and compound was added in 0.1% DMSO 18 hours later. Viability was determined by ATPlite assay after 72 hours. (See FIG. 4C). Example 1 was tested against an expanded panel of cell lines according to the above procedure.
pIC50: −log10 of the molar value.
MEASURE_NAME: pIC50

[
  {
    "SMILES_DATA": "O=C(c1cc(C(F)(F)F)n[nH]1)N(Cc1ccc(O)cc1F)CC1CCC1",
    "MEASURE_NAME": "pIC50",
    "MEASUREMENT": "< 4.52"
  }
]
